Tested on: SK-MEL-5
Test: NCI tumour cell line growth inhibition, 48 h
The source made the active and inactive calls. No stated cut-off is given here; in the data, active = GI50 up to about 1.1 µM and inactive = higher.
Respond with a class label; see y (active), n (inactive)

See these solved cases before continuing.
molecule	classification
Oc1c2c(nc3cc4c(cc13)OCO4)-c1ccccc1CCC2	n
O=C(/C=C/c1ccc(O)c([N+](=O)[O-])c1)CC(=O)/C=C/c1ccc(O)c([N+](=O)[O-])c1	n
NC(=O)C(=O)N/N=C1\C(=O)N(c2ccc(Cl)cc2Cl)C(=O)C1C(=O)Nc1ccc(Cl)cc1Cl (centres undefined)	n
CC1=CC[C@@]2(C)[C@@H]([C@@H]1C)[C@H]1CC[C@@H]3[C@@]4(C)CC[C@H](O)C(C)(C)[C@@H]4CC[C@@]3(C)[C@]1(C)C[C@@H]2O	n
C=C(C)C1CC=C(C(=O)O)CC1 (centres undefined)	n
Nn1c(SCC(=O)NCc2ccccc2)nc2ccccc2c1=O	n

Req: Name the outcome recorded for N#CC(c1ccccn1)c1nc2ccccc2[nH]1 (centres undefined) in the assay.
Resp: n

Req: What classification did CC(C)OC(=O)C1Cc2c([nH]c3ccccc23)C(c2ccccc2)N1 (centres undefined) end up with in this test?
Resp: n

Req: Answer briefly: the call reported for CN(C)CCCCCNc1c2ccccc2nc2cccc([N+](=O)[O-])c12 in this assay.
Resp: y

###

Tested on: SK-MEL-28
Test: NCI tumour cell line growth inhibition, 48 h
Active and inactive are the calls of the source. No stated cut-off is given here; in the data, active = GI50 up to about 1.1 µM and inactive = higher.
Measured GI50 accompanies every entry in the list below.

The cases that follow already have their GI50 on record.
entrySmiles	endpoint	result
CCCCC/C(=N\c1[nH]nnc1C(N)=O)OCC	GI50	> 100 µM (inactive)
CCN(CC)CSc1nc2ccccc2s1	GI50	> 100 µM (inactive)

Req: Request the reported GI50 associated with c1ccc(CSCCC(SCc2ccccc2)SCc2ccccc2)cc1
Resp: > 10 µM (inactive)

Req: I would be grateful if you could share the reported GI50 for C=C1C(=O)O[C@H]2[C@H]3O[C@@H](C[C@@H]12)[C@@]1(C)CC[C@H](O1)[C@H](C)CCC[C@H]3C .
Resp: 1.63 µM (inactive)

Req: For c1ccc2c(c1)nc1ccccn12 , what is its reported GI50?
Resp: > 100 µM (inactive)

Req: Which GI50 is listed for O=C(O)C1(Cc2ccc3c(c2)CCC3)Cc2ccccc2C1 ?
Resp: 60.8 µM (inactive)

###

Tested on: HCC 2998
Assay: NCI tumour cell line growth inhibition, 48 h
Calls of active or inactive are those of the source. No stated cut-off is given here; in the data, active = GI50 up to about 1.1 µM and inactive = higher.
Please answer using one outcome listed in YES (active), NO (inactive)

# count of solved cases: 5
molecule	classification
O=[N+]([O-])c1ccc(NC(=S)N/N=C(\c2ccccc2)c2ccccn2)cc1	NO
Nc1nc(Cl)cc(NCC2(CO)CCC(CCc3ccccc3)C2)n1 (stereo unspecified)	NO
Nn1c(SCC(=O)NCc2ccccc2)nc2ccccc2c1=O	NO
COc1ccc(C(C2=C(O)CC(C)OC2=O)C2=C(O)CC(C)OC2=O)cc1 (stereo unspecified)	NO
O=C(Nn1c(-c2ccccc2)nc2ccccc2c1=O)c1ccccn1	NO

Req: Kindly provide the recorded test outcome for the following molecule: Cc1ccc(-c2c3c(n(C4OC(CO)C(O)C(O)C4O)c(=S)c2C#N)CC(C)(C)CC3=O)cc1 (stereo unspecified)
Resp: NO

Req: Each molecule tested received a call. Report the one for N#CC1(C=O)c2ccccc2C=CN1C(=O)c1ccccc1 (stereo unspecified) .
Resp: NO

Req: Which outcome was entered for the molecule COC(c1ccccc1)C(c1ccccc1)N1CCOCC1 (stereo unspecified) in this test?
Resp: NO

###

This listing pairs compounds with measured GI50.
System: OVCAR-5
Assay: NCI tumour cell line growth inhibition, 48 h
Calls of active or inactive are those of the source. Cut-off read from the data, not from the text of the source: active = GI50 up to about 1.1 µM and inactive = higher.

For orientation, consider the following solved cases.
compound	studySystem	result
Cc1cnoc1/N=C1\C=C(O)C(=O)c2ccccc21	OVCAR-5	10.9 µM (inactive)
COc1ccc(C2c3c(n(C)c(=O)n(C)c3=O)OC(N(C)C)(N(C)C)C2(F)F)cc1 (stereo not given)	OVCAR-5	> 100 µM (inactive)
CC1(C)[C@@H](Cn2cnc3c(Cl)nc(N)nc32)CC[C@@]1(C)CO	OVCAR-5	> 100 µM (inactive)

// next entry
Req: Data request, read-out GI50, for N#CCC(=O)N/N=C\C(O)C(O)C(O)C(O)CO (stereo not given)
Resp: > 100 µM (inactive)

###

System: NCI-H226
Assay: NCI tumour cell line growth inhibition, 48 h
The source made the active and inactive calls. No stated cut-off is given here; in the data, active = GI50 up to about 1.1 µM and inactive = higher.
Listing: GI50 of selected compounds

compound	GI50
O=[N+]([O-])c1c2nc3n(c2cc2c1nc1n2CCC1)CCC3	> 100 µM (inactive)
COc1cc(C(=O)C/C(CCC(=O)Nc2ccc(Cl)cc2Cl)=N/NC(=O)C(N)=O)ccc1O	> 100 µM (inactive)

Req: Given the entry Cn1c(C(C#N)c2cc(Cl)ncn2)nc2ccccc21 (stereo unspecified) , report its measured GI50.
Resp: > 100 µM (inactive)

Req: Report GI50 for CCOP(=O)(OCC)/C(C#N)=C/c1cnc[nH]1 please.
Resp: > 100 µM (inactive)

Req: For CC(=O)OCC1OC(N2C(=O)NC(=O)C3C=C4CCCCC4=CC32)CC1OC(C)=O (stereo unspecified) , what is its reported GI50?
Resp: > 100 µM (inactive)

Req: Given the compound C=C(C)C1CC=C(C(=O)O)CC1 (stereo unspecified) , what is its reported GI50?
Resp: 1040 µM (inactive)

###

Test system: SF-268
Test: NCI tumour cell line growth inhibition, 48 h
Activity calls are given as the source filed them. No stated cut-off is given here; in the data, active = GI50 up to about 1.1 µM and inactive = higher.
endpoint: GI50

molecule	endpoint	result
O=[N+]([O-])C(=C(Sc1ccccc1)Sc1ccccc1)C(Cl)=C(Cl)Cl	GI50	2 µM (inactive)
COC(=O)C(Cc1nc2ccc(Cl)cc2nc1O)/C(=N/O)C(=O)Nc1cccc(Cl)c1C (centres undefined)	GI50	> 100 µM (inactive)

Req: Query (molecule): CC(=O)O[C@H]1CC[C@@]2(C)C(=CC[C@H]3[C@@H]4C[C@H](N5CCCC5)[C@H](OC(C)=O)[C@@]4(C)CC[C@@H]32)C1 ; field requested: GI50
Resp: > 100 µM (inactive)

Req: So what does the record say about GI50 for Cc1cc(=O)oc2cc(OC(=O)Nc3ccc(Cl)c(Cl)c3)ccc12 ?
Resp: 38 µM (inactive)

###

Listed here are molecules together with their documented GI50.
Tested on: OVCAR-3
Assay: NCI tumour cell line growth inhibition, 48 h
Activity calls are given as the source filed them. Rule as the data show it: active = GI50 up to about 1.1 µM and inactive = higher.

molecule	endpoint	result
O=C1C2C3C=C4c5ccccc5N(c5ccccc5)C4(C2C(=O)N1c1ccc(Cl)cc1)[C@H]1C(=O)N(c2ccc(Cl)cc2)C(=O)[C@@H]31 (some centres undefined)	GI50	> 100 µM (inactive)
CC(=O)OC1[C@H](n2ccnc2)C[C@H]2[C@@H]3CC=C4CC(N5CCCC5)CC[C@]4(C)[C@H]3CC[C@]12C (some centres undefined)	GI50	54.6 µM (inactive)
O=C(/N=C(\Nc1ccccc1)SCCS/C(=N/C(=O)c1cccs1)Nc1ccccc1)c1cccs1	GI50	54 µM (inactive)
Cc1ccccc1NC(=O)/C=N/O	GI50	> 100 µM (inactive)

Req: Using the record for O=C1Sc2ccccc2NC1=C(C(=O)c1ccccc1)C(=O)c1ccccc1 , report its GI50.
Resp: 5.18 µM (inactive)

Req: # lookup: GI50 of O=c1cc(-c2ccccc2)nc(/C=C(\O)c2ccncc2)n1-c1ccccc1
Resp: > 100 µM (inactive)

Req: Which value of GI50 has been reported for C=CCNC(=O)CN(CC(=O)O)C1CCCCC1N(CC(=O)O)CC(=O)O (centres undefined) in the records?
Resp: > 100 µM (inactive)

Req: Give its GI50 value. Item: CCOc1ccc2ccc3cccnc3c2n1
Resp: 21.9 µM (inactive)

Req: Item O=C(O)c1cc([N+](=O)[O-])cc2c(=O)c3cnccc3[nH]c12 has what recorded GI50?
Resp: > 100 µM (inactive)

###

Measured GI50 by item
Test system: M14
Assay: NCI tumour cell line growth inhibition, 48 h
Active and inactive are the calls of the source. Rule as the data show it: active = GI50 up to about 1.1 µM and inactive = higher.

Example entries begin here.
compound	result
c1ccc2sc(SCSc3nc4ccccc4s3)nc2c1	> 100 µM (inactive)
COC(=O)c1c(OC(C)=O)ccc2c1c1c(n2C)C(=O)c2ccccc2C1=O	35.2 µM (inactive)
COC(=O)C1=C(C(=O)OC)SC2(S1)C1=C(CCCC1)SC(C(=O)OC)=C2C(=O)OC	16.9 µM (inactive)
Cc1ccccc1NC(=O)/C(=N\NC(N)=S)C(C#N)c1ccccc1 (stereo not given)	> 100 µM (inactive)

Req: Field request: GI50 | item: Cn1c(=O)n2n(c1=O)[C@@H](c1ccccc1)[C@H]2c1ccccc1
Resp: > 100 µM (inactive)

###

Quick list: GI50 per entry.
System: LXFL 529
Experiment: NCI tumour cell line growth inhibition, 48 h
The source made the active and inactive calls. No stated cut-off is given here; in the data, active = GI50 up to about 1.1 µM and inactive = higher.

Known GI50 results, listed for orientation:
molecule	GI50
O=C1Nc2ccccc2N=CC1NC(=O)C(c1ccccc1)c1ccccc1 (stereo unspecified)	> 100 µM (inactive)
O=C(Nc1ccccc1)n1cc(-c2ccccn2)c(N2CCOCC2)n1	7.89 µM (inactive)
CC(=O)OC1CC2OC(Cc3ccccc32)O1 (stereo unspecified)	> 100 µM (inactive)
NC1=NN(c2ccccc2)C(=O)C1C(=O)CCC(=O)Nc1cccc(Cl)c1 (stereo unspecified)	> 100 µM (inactive)
CCCOCN1COCN/C1=N\C#N	> 100 µM (inactive)

Req: Query (molecule): Cc1cccc(C)c1NC(=O)CCC(=O)CC(=O)C(C)C ; field requested: GI50
Resp: > 100 µM (inactive)

The reported measurements were obtained from ChEMBL document CHEMBL1201862.
